Would you mind telling me the reported z-score of each entry?
test: blockers of DNA damage checkpoint Chk1 activation – imaging, HeLa, hydroxyurea, phospho-Chk1 antibody, percent positive cells, primary screen (AID 1186); conditions: hydroxyurea-induced phospho-Chk1 immunofluorescence imaging, higher = more signal
Lab note: jot the number down without any unit.

Lab note: COc1ccc(NN2C(C(O)c3ccc(N(C)C)cc3)C=CC3C(=O)N(C4CCCCC4)C(=O)C32)cc1 (configuration not stated) gave z-score of -0.217

Lab note: Cc1ccc([C@H]2C(C(=O)O)=CCN2S(=O)(=O)c2ccc(C)cc2)cc1 gave z-score of 0.586

Lab note: CN(C)CCCCNC(=O)[C@@H]1C[C@@H]2C(=O)N[C@@H](CCCCN)C(=O)N2[C@@H]1c1ccc(O)cc1 gave z-score of 0.128

Lab note: C=CCN1C(=O)[C@]2(O[C@H](CCO)[C@@H]([Si](C)(C)c3ccc(OC)cc3)[C@@H]2C)c2cc(N(C=O)c3ccccc3)ccc21 gave z-score of -1.11

Lab note: C=CCN(Cc1ccccc1)C(=O)C(c1cccs1)N(C(=O)/C=C\C(=O)O)c1ccc(CCOCCO)cc1 (configuration not stated) gave z-score of -1.25

Lab note: C=CCNC(=O)[C@H]1[C@@H]2C(=O)O[C@@H](c3ccccc3)[C@@H](c3ccccc3)N2[C@@H](c2ccc(O)cc2)[C@]12C(=O)Nc1ccc(C#CCCO)cc12 gave z-score of -0.266

Lab note: COCCOC(=O)N1C(=O)[C@@]2(c3cc(C#Cc4ccc(OC)cc4)ccc31)[C@H](c1ccc(O)cc1)N1[C@H](c3ccccc3)[C@H](c3ccccc3)OC(=O)[C@H]1[C@@H]2C(=O)Nc1nc2ccccc2s1 gave z-score of -0.233

* * *

test: growth modulation of vineyard yeast isolate – strain RM11-1a, OD600, basal, 24 h, primary screen (AID 1177);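 further: cultures grown under basal conditions with no added stressor; test concentration not given here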; conditions: S. cerevisiae RM11-1a growth, OD600, 24 h; higher = more signal, called active from +8 up or from −8 down
So basically: z-score at -0.06 or higher? That is rule met. Lower than -0.06? That is rule not met.

For this compound, is measured z-score -0.06 or higher? O=C1O[C@H](c2ccccc2)[C@H](c2ccccc2)N2[C@H]1[C@@H](C(=O)NC[C@H](O)c1ccccc1)[C@]1(C(=O)Nc3ccccc31)[C@H]2c1ccc(O)cc1 rule met

For this compound, is measured z-score -0.06 or higher? COC(=O)[C@@]1(Cc2ccc(OC)cc2)[C@H]2c3cc(C(=O)N4CCCC4)n(CCCNc4ncc(C(F)(F)F)cc4Cl)c3C[C@H]2CN1C(=O)c1ccccc1 rule met

For this compound, is measured z-score -0.06 or higher? O=C1[C@H]2C=C(Br)[C@H](C[C@@H]2OCCCCCCO)[C@@]12CO2 rule met

For this compound, is measured z-score -0.06 or higher? CC(C)[C@@H](C(=O)O)n1cc(C2(O)CCCCC2)nn1 rule not met

For this compound, is measured z-score -0.06 or higher? CS(=O)(=O)CCOC(=O)C1=CC(CCCO)=CC(c2ccc(CN3CCCC3)cc2)N(Cc2cccc(OC(F)(F)F)c2)C=C1C(=O)OCCS(C)(=O)=O (stereo not drawn) rule met

For this compound, is measured z-score -0.06 or higher? COc1ccc(NN2C(C(O)c3ccc(N(C)C)cc3)C=CC3C(=O)N(C4CCCCC4)C(=O)C32)cc1 (stereo not drawn) rule met

For this compound, is measured z-score -0.06 or higher? C=CCC(OC(C)=O)[C@@H]1[C@@H](N(Cc2ccc(-c3ccccc3)cc2)C(=O)Cc2ccc(F)cc2)c2cc(OCCCO)ccc2N1C(=O)c1ccc2ccccc2c1 (stereo partly drawn) rule not met

For this compound, is measured z-score -0.06 or higher? O[C@@H](Cc1ccccc1)[C@@H](/C=C/C1CC1)NCc1cccc(Cl)c1 rule not met

For this compound, is measured z-score -0.06 or higher? CO[C@H]1O[C@H](CO)[C@@H](OC(=O)Nc2ccccc2)[C@@H]2OC(=O)[C@@H](Cc3ccc4ccccc4c3)C/C=C/C[C@H](Cc3ccc4ccccc4c3)C(=O)O[C@@H]12 rule not met

For this compound, is measured z-score -0.06 or higher? C#CCN1[C@H](/C=C/C2CC2)[C@H](Cc2ccccc2)OC(=O)[C@@H]1Cc1ccccc1 rule met

For this compound, is measured z-score -0.06 or higher? C=CCN1C(=O)[C@]2(O[C@H](CCO)[C@@H]([Si](C)(C)c3ccc(OC)cc3)[C@@H]2C)c2cc(N(C=O)c3ccccc3)ccc21 rule met

For this compound, is measured z-score -0.06 or higher? COCC(=C=CC[C@@H](O)c1ccc(OCCO)cc1)C[C@@H](O)c1ccccn1 rule not met

For this compound, is measured z-score -0.06 or higher? COC(=O)[C@@]1(Cc2ccc(OC)cc2)[C@H]2c3cc(C(=O)N4CCCC4)n(Cc4nc5ccccc5[nH]4)c3C[C@H]2CN1C(=O)c1ccccc1 rule met

For this compound, is measured z-score -0.06 or higher? CCCC=C(CCC)[C@@H](NS(=O)(=O)c1ccc(Cl)cc1)c1ccc(C(=O)OC)cc1 rule not met

For this compound, is measured z-score -0.06 or higher? COCCOC(=O)N1C(=O)[C@@]2(c3cc(C#CC4=CCCCC4)ccc31)[C@H](C(N)=O)[C@H]1C(=O)O[C@H](c3ccccc3)[C@H](c3ccccc3)N1[C@@H]2c1ccc(O)cc1 rule not met

For this compound, is measured z-score -0.06 or higher? O=C(CS)NCCCCCNC(=O)[C@@H]1C[C@@H]2C(=O)NCC(=O)N2[C@@H]1c1cccc(OCCO)c1 rule not met

For this compound, is measured z-score -0.06 or higher? CC(C)[Si](C#CCCCC#N)(O[C@H](c1ccccc1)c1cn(Cc2cccc(Cl)c2)nn1)C(C)C rule not met

For this compound, is measured z-score -0.06 or higher? COC(=O)[C@@]1(Cc2ccc(OC)cc2)[C@H]2c3cc(C(=O)N4CCCC4)n(CCc4ccc(O)c(O)c4)c3C[C@H]2CN1C(=O)c1ccccc1 rule met

For this compound, is measured z-score -0.06 or higher? CC1CC/C=C\[C@H]2OC34C=CCN(Cc5ccccc5)C(=O)[C@H]3N(C(C)CO)C(=O)[C@@H]4C2C(=O)O1 (stereo partly drawn) rule not met

For this compound, is measured z-score -0.06 or higher? CC(C)[Si](C#C[Si](C(C)C)(C(C)C)C(C)C)(O[C@H](C)c1cn(Cc2ccccc2)nn1)C(C)C rule met

For this compound, is measured z-score -0.06 or higher? COCCOC(=O)N1C(=O)[C@@]2(c3cc(C#CC4(O)CCCCCC4)ccc31)[C@H](C(=O)Nc1nc3ccccc3s1)[C@H]1C(=O)O[C@H](c3ccccc3)[C@H](c3ccccc3)N1[C@@H]2c1ccc(OCCO)cc1 rule met

For this compound, is measured z-score -0.06 or higher? O=C1[C@H]2C=C(I)[C@H](C[C@@H]2OCCCCO)[C@@]12CO2 rule not met

For this compound, is measured z-score -0.06 or higher? [N-]=[N+]=NCc1ccccc1[C@@H]1OC(c2ccc(OCCCO)cc2)=N[C@]1(CCS(=O)(=O)c1ccccc1)C(N)=O rule met

For this compound, is measured z-score -0.06 or higher? COCCCNC(=O)[C@@]1(CCS(=O)(=O)c2ccccc2)N=C(c2ccc(OCCCO)cc2)O[C@H]1c1ccccc1N=[N+]=[N-] rule not met

For this compound, is measured z-score -0.06 or higher? COC(=O)[C@@]1(Cc2ccccc2)[C@H]2c3cc(C(=O)N(C)C)n(CCc4c[nH]c5ccc(O)cc45)c3C[C@H]2CN1C(=O)c1ccccc1 rule not met

For this compound, is measured z-score -0.06 or higher? CO[C@H]1O[C@H](CO)[C@@H](OC(=O)Nc2ccc(Br)cc2)[C@@H]2OC(=O)[C@H](Cc3cccc(Br)c3)C/C=C/C[C@@H](Cc3cccc(Br)c3)C(=O)O[C@@H]12 rule met

For this compound, is measured z-score -0.06 or higher? O=C1O[C@H](c2ccccc2)[C@H](c2ccccc2)N2[C@H]1[C@@H](C(=O)NC[C@H](O)c1ccccc1)[C@]1(C(=O)Nc3ccc(C#CC4=CCCCC4)cc31)[C@H]2c1ccccc1OCCO rule met

For this compound, is measured z-score -0.06 or higher? CN1C(=O)C2C=CC(C(O)c3ccccc3)N(N3CCCCC3)C2C1=O (stereo not drawn) rule met

* * *

biological target: Luciferin 4-monooxygenase (Photinus pyralis) (UniProt P08659); test: inhibition of purified Photinus pyralis luciferase – biochemical, luminescence, purified enzyme, 2006 set, primary screen (AID 1141); settings: purified firefly luciferase, SteadyGlo luminescence, 30 min; higher = more signal, called active from +8 up or from −8 down;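 further: cell-free assay with purified firefly luciferase at 100 ng per well in PBS; test concentration not given here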
Sequence (P08659 whole entry, looked up): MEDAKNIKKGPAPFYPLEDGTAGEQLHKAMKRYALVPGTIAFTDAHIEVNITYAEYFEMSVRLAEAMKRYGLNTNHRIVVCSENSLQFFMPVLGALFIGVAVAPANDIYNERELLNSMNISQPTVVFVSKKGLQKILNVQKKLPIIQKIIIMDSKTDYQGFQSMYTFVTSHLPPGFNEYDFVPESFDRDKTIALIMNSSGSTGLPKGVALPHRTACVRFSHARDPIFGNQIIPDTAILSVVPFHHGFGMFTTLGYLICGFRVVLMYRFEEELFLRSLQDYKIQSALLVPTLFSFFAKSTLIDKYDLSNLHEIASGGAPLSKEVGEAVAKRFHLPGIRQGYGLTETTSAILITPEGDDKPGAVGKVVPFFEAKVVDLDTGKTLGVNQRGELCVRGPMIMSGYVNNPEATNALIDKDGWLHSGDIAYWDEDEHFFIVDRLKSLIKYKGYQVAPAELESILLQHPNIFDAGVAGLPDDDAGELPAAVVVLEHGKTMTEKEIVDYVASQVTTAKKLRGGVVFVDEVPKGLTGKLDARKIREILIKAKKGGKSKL
So basically: z-score at 0.3 or higher? That is Yes. Lower than 0.3? That is No.

For this molecule, is measured z-score 0.3 or higher? COC(=O)[C@@]1(Cc2ccc(OC)cc2)[C@H]2c3cc(C(=O)N4CCCC4)n(CCCNc4ncc(C(F)(F)F)cc4Cl)c3C[C@H]2CN1C(=O)c1ccccc1 Yes

For this molecule, is measured z-score 0.3 or higher? CC(C)[Si](C#C[Si](C(C)C)(C(C)C)C(C)C)(O[C@H](C)c1cn(Cc2ccccc2)nn1)C(C)C No

For this molecule, is measured z-score 0.3 or higher? COC(=O)[C@@]1(Cc2ccccc2)[C@H]2c3cc(C(=O)N(C)C)n(CCc4c[nH]c5ccc(O)cc45)c3C[C@H]2CN1C(=O)c1ccccc1 No

For this molecule, is measured z-score 0.3 or higher? COC(=O)[C@@]1(Cc2ccc(OC)cc2)[C@H]2c3cc(C(=O)N4CCCC4)n(CCSCCO)c3C[C@H]2CN1C(=O)c1ccccc1 Yes

For this molecule, is measured z-score 0.3 or higher? Cc1c(NC(=O)/C(C#N)=C/c2cccc([N+](=O)[O-])c2)c(=O)n(-c2ccccc2)n1C No

For this molecule, is measured z-score 0.3 or higher? O=C1[C@H]2C=C(I)[C@H](C[C@@H]2OCCCCO)[C@@]12CO2 No

For this molecule, is measured z-score 0.3 or higher? COc1ccc([Si](C)(C)[C@H]2[C@H](CCn3cc([C@H](O)c4ccccc4)nn3)O[C@@]3(C(=O)N(C)c4ccccc43)[C@@H]2C)cc1 No
